Hello, the source for this data is the supplement of paper PMC10567573, in case you need it.

B1: FBXO39 (parent)
chain: PSRVHASEVESAVWYVKKFGRYLE

Variants of: B1
Assay: protein stability index of a GFP-peptide fusion (GPS, HEK-293T) (PSI 1-6); higher = more stable;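 note: lentivirally expressed fusions sorted by FACS into six bins by GFP to DsRed ratio, PSI derived from sequencing read proportions per bin multiplied by bin number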
Details: c terminus: a fixed tail appended
Answer FALSE if protein stability index is under 2, and TRUE if it is 2 or more.

sequence variant: E8P
class label: TRUE
//
sequence variant: A12L
class label: TRUE
//
sequence variant: S7E
class label: TRUE
//
sequence variant: S2Y
class label: TRUE
//
sequence variant: Y15L
class label: TRUE
//
sequence variant: R3V
class label: TRUE
//
sequence variant: L23T
class label: TRUE
//
sequence variant: L23V
class label: TRUE
//
sequence variant: E8T
class label: FALSE
//
sequence variant: S7Y
class label: TRUE
//
sequence variant: F19N
class label: TRUE
//
sequence variant: H5Q
class label: TRUE
//
sequence variant: V16A
class label: TRUE
//
sequence variant: H5T
class label: FALSE
//
sequence variant: H5L
class label: TRUE
//
sequence variant: Y22N
class label: TRUE
//
sequence variant: E10Q
class label: TRUE
//
sequence variant: F19Q
class label: TRUE
//
sequence variant: K18L
class label: FALSE
//
sequence variant: V16D
class label: TRUE
